tested on: 282377-053-R-J1-PDC complex spheroid viability; assay: Anticancer human tumor 282377-053-R-J1-PDC patient-derived colon adenocarcinoma cell line growth inhibition [POLQ]; details: curve of first compound; second compound 0.0316 µM
pIC50: −log10 of the molar value.
measured property: pIC50

- compound: "CC(=O)O[C@H]1C(=O)[C@@]2(C)[C@H]([C@H](OC(=O)c3ccccc3)[C@]3(O)C[C@H](OC(=O)[C@H](O)[C@@H](NC(=O)c4ccccc4)c4ccccc4)C(C)=C1C3(C)C)[C@]1(OC(C)=O)CO[C@@H]1C[C@@H]2O + Cc1cccc(N(C)C(=O)C2C(O)CCN2c2nc(C)cc(C(F)(F)F)c2C#N)c1"
  pIC50: 7.56
- compound: "CCc1c2c(nc3ccc(O)cc13)-c1cc3c(c(=O)n1C2)COC(=O)[C@]3(O)CC + Nc1ccc(C#CCN(C(=O)Cc2ncc(C(F)(F)F)cc2C(F)(F)F)c2ccc(F)cc2)nn1"
  pIC50: "< 6.00"

Now examine the next entry.
Task: Endpoint output: pIC50 of CC1COCCN1c1cc(C2(S(C)(=N)=O)CC2)nc(-c2ccnc3[nH]ccc23)n1 (stereo not drawn) + COC1C(OC(N)=O)C(O)C(Oc2ccc3c(O)c(NC(=O)c4ccc(O)c(CC=C(C)C)c4)c(=O)oc3c2C)OC1(C)C . Value?
Result: < 5.00

###

Tested on: 282377-053-R-J1-PDC complex spheroid viability
Test: Anticancer human tumor 282377-053-R-J1-PDC cell line growth inhibition [POLQ];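 further: spheroids exposed to compounds for seven days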;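 on viability, T/C: 100% = DMSO vehicle control viability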
Conditions: second compound 3.16 µM; first compound 0.316 µM; stronger effect = lower value
Method: Multicellular complex tumor spheroid response to Polymerase (POL) inhibitors (novobiocin, ART-558, RP6685) in combination with a variety of drugs and investigational agents in selected tumor cell lines The POL inhibitors (novobiocin, ART-558, and RP6685) were evaluated both individually and in combination with standard of care and investigational anticancer small molecules within a complex spheroid model of solid tumors. . […]
Please respond with reported viability, T/C for every item in the list.
Give bare numbers, in %.

Illustrative cases are given below, each with its answer.
- compound: "CCCS(=O)(=O)Nc1ccc(F)c(C(=O)c2c[nH]c3ncc(-c4ccc(Cl)cc4)cc23)c1F + Cc1cccc(N(C)C(=O)C2C(O)CCN2c2nc(C)cc(C(F)(F)F)c2C#N)c1"
  measured property: "viability, T/C"
  reported measurement: 72.1
- compound: "O=c1[nH]cc(F)c(=O)[nH]1 + COC1C(OC(N)=O)C(O)C(Oc2ccc3c(O)c(NC(=O)c4ccc(O)c(CC=C(C)C)c4)c(=O)oc3c2C)OC1(C)C"
  measured property: "viability, T/C"
  reported measurement: 88.1
- compound: "C=CCn1c(=O)c2cnc(Nc3ccc(N4CCN(C)CC4)cc3)nc2n1-c1cccc(C(C)(C)O)n1 + Cc1cccc(N(C)C(=O)C2C(O)CCN2c2nc(C)cc(C(F)(F)F)c2C#N)c1"
  measured property: "viability, T/C"
  reported measurement: 98.3
- compound: "CNCc1ccc(-c2[nH]c3cc(F)cc4c3c2CCNC4=O)cc1 + Cc1cccc(N(C)C(=O)C2C(O)CCN2c2nc(C)cc(C(F)(F)F)c2C#N)c1"
  measured property: "viability, T/C"
  reported measurement: 80.2
- compound: "Nc1ccn(C2OC(CO)C(O)C2(F)F)c(=O)n1 (stereo not drawn) + COC1C(OC(N)=O)C(O)C(Oc2ccc3c(O)c(NC(=O)c4ccc(O)c(CC=C(C)C)c4)c(=O)oc3c2C)OC1(C)C"
  measured property: "viability, T/C"
  reported measurement: 27.9

Dear colleague, could you send me viability, T/C for each of the items below? Thanks.
1. CC1COCCN1c1cc(C2(O)CC3CCC(C2)O3)c2cnn(-c3ccn[nH]3)c2n1 (stereo not drawn) + Nc1ccc(C#CCN(C(=O)Cc2ncc(C(F)(F)F)cc2C(F)(F)F)c2ccc(F)cc2)nn1
2. CC(C)n1c(=O)n(C)c2cnc3cc(F)c(-c4ccc(OCCCN5CCCCC5)nc4)cc3c21 + COC1C(OC(N)=O)C(O)C(Oc2ccc3c(O)c(NC(=O)c4ccc(O)c(CC=C(C)C)c4)c(=O)oc3c2C)OC1(C)C
3. COc1cc2cc(C(=O)CCC(=O)O)sc2cc1OC + Cc1cccc(N(C)C(=O)C2C(O)CCN2c2nc(C)cc(C(F)(F)F)c2C#N)c1

Result:
65.6
108
103

Hey, just so you know, these numbers are from PubChem BioAssay AID1963852.
